Measured values drawn from paper PMC3746001 for this set.

target-under-test: Dpo4 (Saccharolobus solfataricus)
Sequence (Q97W02 1-352): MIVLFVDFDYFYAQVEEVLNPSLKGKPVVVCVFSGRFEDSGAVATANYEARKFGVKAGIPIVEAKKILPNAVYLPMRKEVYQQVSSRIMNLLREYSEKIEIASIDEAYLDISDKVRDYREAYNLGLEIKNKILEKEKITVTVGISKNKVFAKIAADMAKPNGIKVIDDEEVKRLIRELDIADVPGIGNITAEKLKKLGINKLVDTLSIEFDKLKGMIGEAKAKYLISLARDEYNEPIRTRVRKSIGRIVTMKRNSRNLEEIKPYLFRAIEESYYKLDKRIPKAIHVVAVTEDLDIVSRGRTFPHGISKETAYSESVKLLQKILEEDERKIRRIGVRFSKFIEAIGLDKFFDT
measure: IC50

Task item: Query: IC50; subject: O=C1NC(=S)NC(=O)C1=Cc1cn(C(=O)c2ccccc2Br)c2ccc(Cl)cc12 [ITBA-12]
Reply: ~80 µM

====

target-under-test: UniProt P26811
Sequence (P26811 whole entry): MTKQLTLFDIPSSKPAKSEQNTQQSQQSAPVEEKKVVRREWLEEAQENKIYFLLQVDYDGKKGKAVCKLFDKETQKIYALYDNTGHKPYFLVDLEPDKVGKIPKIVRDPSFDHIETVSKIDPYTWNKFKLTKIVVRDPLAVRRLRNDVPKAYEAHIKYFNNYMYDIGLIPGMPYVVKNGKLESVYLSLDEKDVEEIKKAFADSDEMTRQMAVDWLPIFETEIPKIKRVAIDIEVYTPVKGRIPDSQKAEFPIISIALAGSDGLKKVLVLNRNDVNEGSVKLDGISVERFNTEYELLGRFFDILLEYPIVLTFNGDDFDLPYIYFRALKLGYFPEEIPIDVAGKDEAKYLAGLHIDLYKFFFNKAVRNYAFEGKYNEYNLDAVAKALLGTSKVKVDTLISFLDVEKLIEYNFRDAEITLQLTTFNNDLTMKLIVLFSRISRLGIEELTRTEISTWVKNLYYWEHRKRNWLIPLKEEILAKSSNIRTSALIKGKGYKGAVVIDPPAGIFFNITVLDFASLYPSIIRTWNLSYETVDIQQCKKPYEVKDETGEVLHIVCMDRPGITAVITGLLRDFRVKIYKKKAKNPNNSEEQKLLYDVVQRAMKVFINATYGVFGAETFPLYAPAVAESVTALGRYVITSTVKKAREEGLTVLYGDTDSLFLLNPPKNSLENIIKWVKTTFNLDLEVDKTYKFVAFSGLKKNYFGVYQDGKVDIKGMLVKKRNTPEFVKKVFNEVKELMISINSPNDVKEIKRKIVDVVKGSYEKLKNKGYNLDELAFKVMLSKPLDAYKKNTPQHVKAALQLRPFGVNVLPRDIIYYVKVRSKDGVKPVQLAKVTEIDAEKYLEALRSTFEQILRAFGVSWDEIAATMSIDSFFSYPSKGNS
pIC50: −log10 of the molar value.
measure: pIC50

Task item: Look up pIC50: O=C1NC(=S)NC(=O)C1=Cc1cn(C(=O)c2ccccc2Br)c2ccc(Cl)cc12 [ITBA-12]
Reply: ~4.10

====

target-under-test: Human DNA polymerase beta (hpol β) (Homo sapiens)
measure: pIC50
FYI, pIC50 means -log10 of a concentration in mol per litre.

Task item: I have this compound here, O=C1NC(=S)NC(=O)C1=Cc1cn(C(=O)c2ccccc2Br)c2ccc(Cl)cc12 [ITBA-12] , and I need its recorded pIC50.
Reply: 4.39
